system: thrombin (Homo sapiens)
Construct: Thrombin used in this test was prepared from human plasma; from tissue; host or cells: human plasma
assay explanation: In vitro enzyme assay for determining thrombin inhibition constants (Chromozym TH substrate)
Assay type: biochemical
condition context: thrombin prepared from human plasma; Dixon plot; pH 7.8; read-out: Inhibition constant Ki
readout type: Ki (nM)
Report as a plain number; the unit nM is understood.

Ask: Give its Ki value. Item: N=C(N)c1ccc(CNC(=O)[C@@H]2CCCN2C(=O)[C@H](NS(N)(=O)=O)C(c2ccccc2)c2ccccc2)nc1
Reply: 0.055

Ask: CCCOC(=O)N[C@@H](C(=O)N1CCC[C@H]1C(=O)NCc1ccc(C(=N)N)cc1)C(c1ccccc1)c1ccccc1 ?
Reply: 0.035

Ask: Then COP(=O)(N[C@@H](C(=O)N1CCC[C@H]1C(=O)NCc1ccc(C(=N)N)cc1)C(c1ccccc1)c1ccccc1)OC ?
Reply: 0.011
